molecular target: BCL-2 binding to biotinylated BAK peptide (Homo sapiens (Human)); experiment: SPR (Biacore) solution inhibition assay, BCL-2 binding to BAK peptide surface; conditions: high and low IC50 values from multiple experiments; 56 nM BCL-2, BAK peptide sensor surface, 25° C.; read-out: BCL2_SPR IC50 BAK
Sequence (P10415 whole entry): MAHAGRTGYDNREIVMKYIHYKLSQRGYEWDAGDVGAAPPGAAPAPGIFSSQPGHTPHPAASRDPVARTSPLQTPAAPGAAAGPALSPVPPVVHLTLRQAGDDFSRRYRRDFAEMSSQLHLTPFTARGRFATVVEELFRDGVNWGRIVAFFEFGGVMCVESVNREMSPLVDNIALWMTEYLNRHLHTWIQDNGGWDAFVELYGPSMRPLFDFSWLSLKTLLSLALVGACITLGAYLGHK
assay_metric: IC50

Answered examples (4):
CCCCN(CCCC)C(=O)c1cc(C)n(-c2ccc(NS(=O)(=O)c3ccc(CNC(=O)c4ccc(Cl)cc4)s3)cc2C(=O)N2Cc3ccccc3C[C@H]2CO)n1: 2280 to 2510 nM
CCCCN(CCCC)C(=O)c1cc(C)n(-c2ccc(NS(=O)(=O)c3ccccc3Cl)cc2C(=O)N2Cc3ccccc3C[C@H]2CO)n1: 435 to 683 nM
CCCCN(CCCC)C(=O)c1cc(C)n(-c2ccc(NS(=O)(=O)c3ccc(Oc4ccccc4C)cc3)cc2C(=O)N2Cc3ccccc3C[C@H]2CO)n1: 3020 to 3680 nM
CCCCN(CCCC)C(=O)c1cc(C)n(-c2ccc(NS(=O)(=O)c3ccc(NC(C)=O)c(Cl)c3)cc2C(=O)N2Cc3ccccc3C[C@H]2CO)n1: 252 to 257 nM

Task: State its IC50: `CCCCN(CCCC)C(=O)c1cc(C)n(-c2ccc(NS(=O)(=O)c3cc(Cl)ccc3F)cc2C(=O)N2Cc3ccccc3C[C@H]2CO)n1`
Output: 828 to 871 nM
